These measurements were taken from the supplement of paper PMC9170038.

Task for the reader: assign each of the following sequences its reported apparent KD of MS2 coat protein.
- Test system: MS2 coat protein
- EXPERIMENT_DESCRIPTION: apparent KD of MS2 coat protein; designed switch direction (-1 OFF switch, 1 ON switch): 1; higher = weaker reporter binding
- TEST_CONDITIONS: input ligand: microRNA oligo, concentration not stated
// units = nM; emit number, no label

Data request: Recorded apparent KD of MS2 coat protein for UGGUACAUGGGAGGAUAUCAUGUAGAAACAUGAGGAUCACCCAUGUUGAUGGAGACAUCGGAGAUUGAGAAGGCCCAUGUACCU [JL SSNG1 3.57] (Eterna round: R96, puzzle: Same State NG 2) with MS2 coat protein, please?
Data returned: 33.6

Data request: Recorded apparent KD of MS2 coat protein for UGGCUCAGACGAGGAUAUGGUCAUGGCGCUUCGGCGCAUACAUGAGGAUCACCCAUGUAGGGUGAUCAGAAGGCGUCUGAGCCA [SSNG2/9-A2] (Eterna round: R96, puzzle: Same State NG 2) with MS2 coat protein, please?
Data returned: 573

Data request: Recorded apparent KD of MS2 coat protein for GCUAGUAAAAUUGCUAACAUGAGGAUCACCCAUGUAUGUUGGCAGGAUAUCGUUUGCAAAGCAAACGAGAAGGGCUAAACUAGC [Mat - Same State NG 3 - JL Mod - D15] (Eterna round: R96, puzzle: Same State NG 3) with MS2 coat protein, please?
Data returned: 47.5

Data request: Recorded apparent KD of MS2 coat protein for GGAGCCGGCCUAGGAUAUUUCAUAAUUAAACAUGAGGAUCACCCAUGUAGGCCAGAAGGCCUUGGGAAGAAGGAGGUCGGCUCC [Loop Effect - U26,U27] (Eterna round: R96, puzzle: Same State NG 2) with MS2 coat protein, please?
Data returned: 39

Data request: Recorded apparent KD of MS2 coat protein for GGAAUAUGAUGUUACAUGAGGAUCACCCAUGUAGUGAUAACUAAGGAUAUUUGAAAGGGAGGAGAAGAGAAGGUAGGAUCAUAA [AK SSNG3-V2-11.1] (Eterna round: R96, puzzle: Same State NG 3) with MS2 coat protein, please?
Data returned: 47.6

Data request: Recorded apparent KD of MS2 coat protein for GCUACGGCAGUAGGAUAUGUAGGAUAUGGCGAGAGCUAAGCUUGGAAGUCACUUCAGCCAGAAGGACAGAAGGACACCGUGAGG [pwkr ssNG2 2FMN + F9.16] (Eterna round: R96, puzzle: Same State NG 2) with MS2 coat protein, please?
Data returned: 22.5

Data request: Recorded apparent KD of MS2 coat protein for GUUAGGAAUCUAGCUGACAUGAGGAUCACCCAUGUUAGUGGGAAGGAUAUGGUACAGAAACUGUACCAGAAGGUCUUACUGUCU [MOD Omei's SS(NG) 3 AV9] (Eterna round: R96, puzzle: Same State NG 3) with MS2 coat protein, please?
Data returned: 21.4

Data request: Recorded apparent KD of MS2 coat protein for AGAUCAUGACGAGGAUAUGGUACAUGAGGAUCACCCAUGUAUGUACCACGACGGAAACGUCGAAUCCAGAAGGCGUCGUGAUCA [Mat - Same State NG 2 - JL mod - D23] (Eterna round: R96, puzzle: Same State NG 2) with MS2 coat protein, please?
Data returned: 100

Data request: Recorded apparent KD of MS2 coat protein for UCUGAUGCCGUAGGAUAUCUAGGAUAUGGACGAGGAUCACCCGAGCAGCAUCAGCGCACCAGAGGAGAGAAGGACGCUUUGGAA [pwkr ssNG2 2F5 2FMN.21] (Eterna round: R96, puzzle: Same State NG 2) with MS2 coat protein, please?
Data returned: 274

====

- Test system: MS2 coat protein
- EXPERIMENT_DESCRIPTION: apparent KD of MS2 coat protein; designed switch direction (-1 OFF switch, 1 ON switch): 1; higher = weaker reporter binding
- TEST_CONDITIONS: input ligand: microRNA oligo, concentration not stated
Use satisfied when the recorded apparent KD of MS2 coat protein is no lower than 40 nM; use not satisfied when it is lower.

Data request: Item GUAGCAUACCGAGGAUAUUCAUAUUACAUGAGGAUCACCCAUGUUUUAGGCCGAUUACGGCCUUGGGAGAAGGCGGAAUGCUAC [Xeonanis - 20 Mod23] (Eterna round: R96, puzzle: Same State NG 2) with apparent KD of MS2 coat protein of 40 nM or above?
Data returned: not satisfied

Data request: Item AUACAUGAGGAUCACCCAUGUAAUUAAUUAAUUAAUAAGAUCUAGGAUAUCAGCUCGUUUAGAGCUGAGAAGGAGAUCACAUGU [SSNG3/21-B3] (Eterna round: R96, puzzle: Same State NG 3) with apparent KD of MS2 coat protein of 40 nM or above?
Data returned: not satisfied

Data request: Item AGCUAUUACGAAGGAUAUAGGGACAUGAGGAUCACCCAUGUGUACAUGAGUAAAUGUGAUCACGUCUAGAAGGUUGUACUAACA [SameState NG2 #36] (Eterna round: R96, puzzle: Same State NG 2) with apparent KD of MS2 coat protein of 40 nM or above?
Data returned: satisfied

Data request: Item AUUGCUAGCACAGGAUAUCAUGCGAAAAUUGCGUGAGAAGGGUGGACACUGUCAUUCACGGAGGACAUGAGGAUCACCCAUGUC [SameState NG1 #79] (Eterna round: R96, puzzle: Same State NG 1) with apparent KD of MS2 coat protein of 40 nM or above?
Data returned: satisfied

Data request: Item UUACUCAUGUAAGGAUAUGCAGCCGAAACGGCUGCAGAAGGUACUAUAAUACAUGAGGAUCACCCAUGUAAAAUAUAUAAAGUU [Mat - Same State NG 1 - JL mod - D96] (Eterna round: R96, puzzle: Same State NG 1) with apparent KD of MS2 coat protein of 40 nM or above?
Data returned: not satisfied

Data request: Item GUCAGCGAUUGAGGAUAUCACGUCGAUUAGACGUGAGAAGGCGAUCAUAACAUGAGGAUCACCCAUGUAUUACAUGAAGCUGAC [SSNG1/5-A2] (Eterna round: R96, puzzle: Same State NG 1) with apparent KD of MS2 coat protein of 40 nM or above?
Data returned: not satisfied

Data request: Item UGCUUCGUGUAAGGAUAUGCUGCCGUUUCGGCUGCAGAAGGUACUAUAAUACAUGAGGAUCACCCAUGUCUCUCGCUUUGCGGG [salish99_SSng1_r04_305] (Eterna round: R96, puzzle: Same State NG 1) with apparent KD of MS2 coat protein of 40 nM or above?
Data returned: satisfied

Data request: Item UUGCGGGCUUGAGGAUAUUGAGUACAUAUGUUUAACAUGAGGAUCACCCAUGUGGGUUGCGGUAUCGAGAAGGUAACUUCCUCC [salish99_SSNG2_r04_809] (Eterna round: R96, puzzle: Same State NG 2) with apparent KD of MS2 coat protein of 40 nM or above?
Data returned: satisfied

Data request: Item CGCCCGAAUGAAGGAUAUGGUACAACACGAUGAUCAGAAGGUUAUUAAAGUGGGUGAUGCCGACAUGAGGAUCACCCAUGUUGG [Eternabot solution 40] (Eterna round: R96, puzzle: Same State NG 1) with apparent KD of MS2 coat protein of 40 nM or above?
Data returned: satisfied

====

- Test system: K4 kissing-loop RNA reporter;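 further: bound reporter read as fluorescence of individual clusters on recovered sequencing chips by microscopy, with normalized cluster intensities fitted with a binding model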
- EXPERIMENT_DESCRIPTION: apparent KD of K4 kissing-loop reporter; higher = weaker reporter binding
- TEST_CONDITIONS: Eterna round: R107; input ligand: arginine 13.2 mM
Use true (1) when the recorded apparent KD of K4 kissing-loop reporter is no lower than 200 nM; use false (0) when it is lower.

Data request: Item AUAGGAUUGCGAGGAUAUCCUUCCCACGUCGAAGUACCGUGCUUGAUGGAGUGAUGUUCGAUCAGAGGAGAAGGUGCGGUUUUGU [Same State FMN B GF24] with apparent KD of K4 kissing-loop reporter of 200 nM or above?
Data returned: true (1)

Data request: Item AAGCAGUCACUCGAAGCCAUCGAAGAUGGGCGAGGACCGGUACGGCCGCCACUCGGAGUGAUGUUCCGAAGACUGCAAAAUAAAA with apparent KD of K4 kissing-loop reporter of 200 nM or above?
Data returned: true (1)

Data request: Item AGAUUCGACACGGCCGCCACUUCCAGUGGCUGGUGUCAUGGUGCGCGUGAGUGAUGUUUAUGUGGAAGGACCGGGUGUUGAGUCU [KL-XTryp-B1 #analogue] with apparent KD of K4 kissing-loop reporter of 200 nM or above?
Data returned: true (1)

Data request: Item GAUUGUGAUGGAAACAUCGCAAUCUCUGAAGGAGCGCGUGAAAACGCAGGUAGGUCGCAGGACGACAAAGACAGUGAUGUUGUCA [Ex Arginine A K4 1] with apparent KD of K4 kissing-loop reporter of 200 nM or above?
Data returned: true (1)

Data request: Item GCCGUACGCAUGGAUACCAGCAAUAUGCUACGUUGUAGUAGUAUAACCAGUGAUGUUGGAUGCCCUUGGCAGCCAUGCGUACGGC with apparent KD of K4 kissing-loop reporter of 200 nM or above?
Data returned: true (1)

Data request: Item UGAUACCAGACUGAUACCAGCAAGUGAUGUUUGUUGAUCAAAAGCAGUCAAAGACUGCUUUGCCCUUGGCAGCAGUCUGGUAUCU [#10 K4 Theophylline B Exclusion] with apparent KD of K4 kissing-loop reporter of 200 nM or above?
Data returned: false (0)

Data request: Item AAAAUUGCGGUCGAUAGAACUUUUUGCUUACGAGGACCGGUACGGCCGCCACUCGAGUCAAGUGAUGUUUGAUUUUCUAUUAUUA [JR_ExcTryptoA_Sub014] with apparent KD of K4 kissing-loop reporter of 200 nM or above?
Data returned: false (0)

Data request: Item AGGAGCGUGCGAUGCAAAUCGCACGCUCCUCGAGGACCGGUACGGCCGCCACUCGCUCGCGCCGAGUGAUGUUCGGCCGGCGAAC [#2 Same State - Tryptophan A Attempt #10 (HarryS)] with apparent KD of K4 kissing-loop reporter of 200 nM or above?
Data returned: true (1)

Data request: Item UGAUAGGACAGAAGGAGCGGGAGUGAUGUUCCCAAAAGGGUAAGGUGUCAAAAGACACCCUUCCAGGUAGGUCGCUGUCCUAUCU with apparent KD of K4 kissing-loop reporter of 200 nM or above?
Data returned: false (0)

Data request: Item UGGAUAUAGUGAUGUUAUAUAGAGAUGGAUACCAGCUAAGAGAAUAGCCCUUGGCAGCCGAAAGAAGUAUCAUUAGAGAAGAAUG [ExTheophyl.Ae] with apparent KD of K4 kissing-loop reporter of 200 nM or above?
Data returned: true (1)

Data request: Item UGCGCUGUGUCCUAAAAUGUCCUCCGGGAUACCAGAGUCUUUUUAUUCCCUUGGCAGCUUGAGUGAUGUUUGAUGCCGUUCUUGU [xxbxymullin] with apparent KD of K4 kissing-loop reporter of 200 nM or above?
Data returned: true (1)

Data request: Item CCGUAUGUCCACUAUUGAGUGAUGUUCAAGCGAGGACCGGUACGGCCGCCACUCGCGUUACCCACCACGUGUCGCCGCACUUACC [theeternabot_exclusion_KL_Trp_A_42] with apparent KD of K4 kissing-loop reporter of 200 nM or above?
Data returned: false (0)

Data request: Item CCAUUCUGUUACGAUACCAGUCUAAUAUAUUUGAUCAAUACCCUCGCCGAGUGAUGUUCGGACCCUUGGCAGCGUCUGGGACAGG [bbybmullin] with apparent KD of K4 kissing-loop reporter of 200 nM or above?
Data returned: true (1)

Data request: Item CAUAGACAAGUGAUGUUUGUCAUAACCGAAGGAGCGUCUUUAAAGACAGGUAGGUCGCGGAUUAAUUAAGUUAUUAUUCUUUUUA [JR_SSArginiA_Sub018] with apparent KD of K4 kissing-loop reporter of 200 nM or above?
Data returned: true (1)

Data request: Item GGAUGCAUAGUAGAUACCAGCAAGCUCGGAUAGUGAUGUUGUUCGCAGUCAUUUCGGUAGUGCCCUUGGCAGCUAGACGCCCGAU [theeternabot_exclusion_KL_Theo_B_36] with apparent KD of K4 kissing-loop reporter of 200 nM or above?
Data returned: false (0)

Data request: Item AGACUACCACACUGUCAAUAGACAGUGAGCUAGGAUAUGCUGAUAAGCAGAAGGAGUGAUGUUCCGAGGUAGUCAAUAAAAUAAU [FmnAX 13 G29+G66] with apparent KD of K4 kissing-loop reporter of 200 nM or above?
Data returned: true (1)

Data request: Item UAUAUAGUGACGGCCGCCACUAUAGUAAUGUUUUUGUUAGAGUGAUGUUUUGUUUUUUAAUUUUAUAGGACCGGGUUAUAUGUUA [llpmullin] with apparent KD of K4 kissing-loop reporter of 200 nM or above?
Data returned: true (1)

Data request: Item GGCAGUGAUGUUGCCAGUGGCAGAUGCGAAGGAGCGUGGUGAGACACAGGUAGGUCGCGCAUUGAAAUUGCUGUCACUAAAAUGC [#3] with apparent KD of K4 kissing-loop reporter of 200 nM or above?
Data returned: true (1)

Data request: Item CCGGCCCGGCCGGAUACCAGUGCGCCGCUGGGAACCGCGGGCCCAGAGUGAUGUUCGGGACACCCUUGGCAGCCGCCUGGGUCGC [#2 Same State - Theophylline B Attempt #24 (HarryS)] with apparent KD of K4 kissing-loop reporter of 200 nM or above?
Data returned: false (0)

Data request: Item AUUGUACAGGGAAGGAGCGUCGACCAGUGAUGUUGGAGUUAAAUACCAGUGAUGUUGGUUAGGCAGGUAGGUCGCCCUCAAGUAG [#10 K4 Arginine B Exclusion] with apparent KD of K4 kissing-loop reporter of 200 nM or above?
Data returned: false (0)

Data request: Item UAGGAGUGAUGUUCCAUAUGUAAGGCCGAAGGAGCGGCAUUAUAGCCAGGUAGGUCGCGGCAGUACGUACCAGUGAUGUUGGAAA [KL-SSArg-A5] with apparent KD of K4 kissing-loop reporter of 200 nM or above?
Data returned: false (0)

Data request: Item AAAUAAAGCAGUCACCCAGUGAUGUUGGAAGGAGCGUGCGAAAGCACAGGUAGGUCGCCGAUAGGACAAAGUCCAAGUGGCUGCA [#SwitchBubble 30 #K4Early] with apparent KD of K4 kissing-loop reporter of 200 nM or above?
Data returned: true (1)

Data request: Item GCCUAGGCUCGAAAGAGCCUAGGCUUGUCUCAGGAUAUCUGGAAACAGAGAAGGGAGCUACUAGUGAUGUUAGGAAUUCCCUAAG with apparent KD of K4 kissing-loop reporter of 200 nM or above?
Data returned: false (0)
